Source: PubChem BioAssay (NCI)

The following molecules are listed with their measured growth inhibition values.
- MEASUREMENT PROTOCOL: NCI Yeast Anticancer Drug Screen. Data for the cln2 rad14 strain (AID 165);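 also: 0% = growth equal to vehicle treated cultures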
- MEASUREMENT CONDITIONS: S. cerevisiae cln2 rad14 strain, at 50.0 µM (retest, dose inferred, filed as 5.0), stronger effect = higher value
Compounds without any hit were thinned out: in the full panel of roughly 79,000, 15% have a hit.
Numeric only. Scale: %

Take a look at these entries with their results.
>>> experimental_result("CC(=O)Nc1nc([N+](=O)[O-])c(C(C)C)s1")
-4
>>> experimental_result("N#CC(=C1C=CC(=NOC(=O)Nc2cccc3ccccc23)C=C1)c1ccccc1")
99
>>> experimental_result("COc1ccc(/C=C2\\CCCC(CN(C)C)C2=O)cc1 (configuration not stated)")
9
>>> experimental_result("CN(C)Cc1cc(CN(C)C)c(O)c(CN(C)C)c1")
-8
>>> experimental_result("CCN1CCC(O)(c2ccc(Oc3ccccc3)cc2)C(C(=O)c2ccc(Oc3ccccc3)cc2)C1 (configuration not stated)")
35

Data request: Need growth inhibition, item COc1ccc2nc3cc(Cl)ccc3c(NCCCNCc3cc(OC)c(OC)c(OC)c3)c2c1
Data returned: 83

Data request: Need growth inhibition, item OCC1OC(n2cnc3c(=S)nc[nH]c32)C(O)C1O (configuration not stated)
Data returned: -7

Data request: Need growth inhibition, item CCCCCCCCCCCCCCCC(=O)NCC[N+](C)(C)C
Data returned: 99

Data request: Need growth inhibition, item CCCCCCCCCCCCSC(=NC)NC
Data returned: 99

Data request: Need growth inhibition, item CCSSc1ccccc1C(=O)NC(CC)CO (configuration not stated)
Data returned: 12

Data request: Need growth inhibition, item Nc1nccnc1C(=O)O
Data returned: -54

Data request: Need growth inhibition, item C/C(=N\NC(=S)N1CCN(c2ccccn2)CC1)c1nccs1
Data returned: 98

----------
The following molecules are listed with their measured growth inhibition values.
- MEASUREMENT PROTOCOL: NCI Yeast Anticancer Drug Screen. Data for the rad50 strain (AID 155);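 also: 0% = growth of vehicle-only cultures of the same strain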
- MEASUREMENT CONDITIONS: S. cerevisiae rad50 strain growth inhibition; at 5.0 µM (retest, dose inferred, filed as 0.5); stronger effect = higher value
This is part of a sample that, as a whole, favours compounds with a hit. Of some 79,000 tested, about 15% had one in any assay. Where a SMILES comes first, the peptide text is derived from it.
Numeric only. Scale: %

Take a look at these entries with their results.
>>> experimental_result("NNC(=O)c1ccc(NC(=O)CSc2nc3ccccc3s2)cc1")
-4
>>> experimental_result("O=C(O)CSCc1ccc(Cl)cc1")
-2
>>> experimental_result("Nc1ccc2cc3ccc(N)cc3nc2c1")
21
>>> experimental_result("CCOc1ccc(N/N=C(\\CCC(=O)O)C(=O)O)cc1")
-6
>>> experimental_result("O=S(=O)(CC(Cl)c1ccccc1)c1nc2ccccc2s1 (configuration not stated)")
-7
>>> experimental_result("COc1ccc(/C=C2\\C=Nc3ccccc32)cc1")
12
>>> experimental_result("CC(C)C(NC(=O)C(N)CCC(=O)O)C(=O)O (stereo not drawn) (H-Glu-Val-OH; configuration not given here)")
-3
>>> experimental_result("CN(C)Cc1c(O)ccc2ccccc12")
2
>>> experimental_result("O=C1C=CC(=O)C(C2OC(=O)C(Br)=C2Br)=C1 (configuration not stated)")
-14
>>> experimental_result("CCCCCCCCCCCCCCCCCCOCC(O)CO (configuration not stated)")
0

Data request: Need growth inhibition, item O=C(CC1(O)C(=O)Nc2ccccc21)c1ccc(Cl)c(Cl)c1 (configuration not stated)
Data returned: -5

Data request: Need growth inhibition, item O=C(/C=C/c1ccccn1)c1ccccc1
Data returned: 4
